System: lymphocytic leukemia P388
TEST: Lymphocytic Leukemia P388 Test
Format: in vivo, BDF1 mice
APPLIED CONDITIONS: dose 0.75 mg/kg intraperitoneally on days 1, 5 and 9; BDF1 mice
OBSERVABLE: Median Survival (days)

MOLECULE	VALUE UNITS	VALUE
Cl.Cl.N[C@@H](CCC(=O)O)C(=O)NCCNc1ccc(NCCNC(=O)[C@@H](N)CCC(=O)O)c2c1C(=O)c1c(O)ccc(O)c1C2=O (relative stereo)	days	22.0
Br.Br.CC(C)C[C@H](NC(=O)[C@@H]1CCCN1C(=O)CN)C(=O)NCC(=O)N1CCC[C@H]1C(=O)NCCNc1ccc(NCCNC(=O)[C@@H]2CCCN2C(=O)CNC(=O)[C@H](CC(C)C)NC(=O)[C@@H]2CCCN2C(=O)CN)c2c1C(=O)c1c(O)ccc(O)c1C2=O	days	19.0
C[C@H](NC(=O)[C@@H](N)CO)C(=O)NCCNc1ccc(NCCNC(=O)[C@H](C)NC(=O)[C@@H](N)CO)c2c1C(=O)c1c(O)ccc(O)c1C2=O.O=C(O)C(F)(F)F.O=C(O)C(F)(F)F	days	22.0
Br.Br.N[C@@H](CS)C(=O)NCCNc1ccc(NCCNC(=O)[C@@H](N)CS)c2c1C(=O)c1c(O)ccc(O)c1C2=O (relative stereo)	days	21.0
CC(C)(C)OC(=O)N[C@@H](CCC(=O)OCc1ccccc1)C(=O)NCCNc1ccc(NCCNC(=O)[C@H](CCC(=O)OCc2ccccc2)NC(=O)OC(C)(C)C)c2c1C(=O)c1c(O)ccc(O)c1C2=O (relative stereo)	days	16.5
Cl.Cl.N[C@@H](Cc1ccc(O)cc1)C(=O)NCCNc1ccc(NCCNC(=O)[C@@H](N)Cc2ccc(O)cc2)c2c1C(=O)c1c(O)ccc(O)c1C2=O (relative stereo)	days	25.0
CC(C)(C)OC(=O)C[C@H](NC(=O)OCC1c2ccccc2-c2ccccc21)C(=O)NCCNc1ccc(NCCNC(=O)[C@H](CC(=O)OC(C)(C)C)NC(=O)OCC2c3ccccc3-c3ccccc32)c2c1C(=O)c1c(O)ccc(O)c1C2=O (relative stereo)	days	13.0
Br.Br.C[C@H](NC(=O)[C@H](CO)NC(=O)[C@H](CCCNC(=N)N)NC(=O)OCc1ccccc1)C(=O)NCCNc1ccc(NCCNC(=O)[C@H](C)NC(=O)[C@H](CO)NC(=O)[C@H](CCCNC(=N)N)NC(=O)OCc2ccccc2)c2c1C(=O)c1c(O)ccc(O)c1C2=O	days	22.0
CC(C)C[C@H](NC(=O)OCc1ccccc1)C(=O)N[C@@H](C)C(=O)N[C@@H](CC(C)C)C(=O)NCCNc1ccc(NCCNC(=O)[C@H](CC(C)C)NC(=O)[C@H](C)NC(=O)[C@H](CC(C)C)NC(=O)OCc2ccccc2)c2c1C(=O)c1c(O)ccc(O)c1C2=O	days	20.0

----------
Tested on: lymphocytic leukemia P388
TEST: Lymphocytic Leukemia P388 Test
Type: in vivo, BDF1 mice
APPLIED CONDITIONS: dose 0.75 mg/kg intraperitoneally on days 1, 5 and 9; ratio of survival time treated/control
OBSERVABLE: T/C × 100 (%)

COMPOUND	VALUE UNITS	VALUE
CC(C)C[C@H](NC(=O)[C@H](C)NC(=O)[C@H](C)N)C(=O)NCCNc1ccc(NCCNC(=O)[C@H](CC(C)C)NC(=O)[C@H](C)NC(=O)[C@H](C)N)c2c1C(=O)c1c(O)ccc(O)c1C2=O.O=C(O)C(F)(F)F.O=C(O)C(F)(F)F [Example 68]	%	210
O=C(CNC(=O)CNC(=O)OCc1ccccc1)NCCNc1ccc(NCCNC(=O)CNC(=O)CNC(=O)OCc2ccccc2)c2c1C(=O)c1c(O)ccc(O)c1C2=O [Example 57]	%	109
CC(C)C[C@H](NC(=O)[C@H](C)NC(=O)OC(C)(C)C)C(=O)NCCNc1ccc(NCCNC(=O)[C@H](CC(C)C)NC(=O)[C@H](C)NC(=O)OC(C)(C)C)c2c1C(=O)c1c(O)ccc(O)c1C2=O [Example 65]	%	109
CC(C)(C)OC(=O)C[C@H](NC(=O)OCC1c2ccccc2-c2ccccc21)C(=O)NCCNc1ccc(NCCNC(=O)[C@H](CC(=O)OC(C)(C)C)NC(=O)OCC2c3ccccc3-c3ccccc32)c2c1C(=O)c1c(O)ccc(O)c1C2=O (relative stereo) [Example 38]	%	108
C[C@H](N)C(=O)N[C@@H](C)C(=O)N[C@@H](C)C(=O)NCCNc1ccc(NCCNC(=O)[C@H](C)NC(=O)[C@H](C)NC(=O)[C@H](C)N)c2c1C(=O)c1c(O)ccc(O)c1C2=O.O=C(O)C(F)(F)F.O=C(O)C(F)(F)F [Example 73]	%	200
CC(C)(C)OC(=O)N[C@@H](CO)C(=O)NCCNc1ccc(NCCNC(=O)[C@H](CO)NC(=O)OC(C)(C)C)c2c1C(=O)c1c(O)ccc(O)c1C2=O (relative stereo) [Example 14]	%	123
C[C@H](NC(=O)[C@H](C)NC(=O)[C@@H](N)CC(=O)O)C(=O)NCCNc1ccc(NCCNC(=O)[C@H](C)NC(=O)[C@H](C)NC(=O)[C@@H](N)CC(=O)O)c2c1C(=O)c1c(O)ccc(O)c1C2=O.O=C(O)C(F)(F)F.O=C(O)C(F)(F)F [Example 83]	%	220
Br.Br.C[C@H](N)C(=O)N[C@@H](C)C(=O)N[C@@H](CCCNC(=N)N)C(=O)NCCNc1ccc(NCCNC(=O)[C@H](CCCNC(=N)N)NC(=O)[C@H](C)NC(=O)[C@H](C)N)c2c1C(=O)c1c(O)ccc(O)c1C2=O.O=C(O)C(F)(F)F.O=C(O)C(F)(F)F [Example 90]	%	214
Br.Br.Br.Br.C[C@H](N)C(=O)N[C@@H](CCCNC(=N)N)C(=O)NCCNc1ccc(NCCNC(=O)[C@H](CCCNC(=N)N)NC(=O)[C@H](C)N)c2c1C(=O)c1c(O)ccc(O)c1C2=O [Example 88]	%	225
Br.Br.C[C@H](N)C(=O)NCC(=O)NCCNc1ccc(NCCNC(=O)CNC(=O)[C@H](C)N)c2c1C(=O)c1c(O)ccc(O)c1C2=O [Example 56]	%	191
NCC(=O)NCC(=O)NCC(=O)NCCNc1ccc(NCCNC(=O)CNC(=O)CNC(=O)CN)c2c1C(=O)c1c(O)ccc(O)c1C2=O.O=C(O)C(F)(F)F.O=C(O)C(F)(F)F [Example 60]	%	177
Br.Br.C[C@H](NC(=O)[C@H](CO)NC(=O)[C@H](CCCNC(=N)N)NC(=O)OCc1ccccc1)C(=O)NCCNc1ccc(NCCNC(=O)[C@H](C)NC(=O)[C@H](CO)NC(=O)[C@H](CCCNC(=N)N)NC(=O)OCc2ccccc2)c2c1C(=O)c1c(O)ccc(O)c1C2=O [Example 93]	%	200
CC[C@H](C)[C@H](N)C(=O)NCCNc1ccc(NCCNC(=O)[C@@H](N)[C@@H](C)CC)c2c1C(=O)c1c(O)ccc(O)c1C2=O.Cl.Cl (relative stereo) [Example 21]	%	185
Br.Br.N=C(N)NCCC[C@H](N)C(=O)NCCNc1ccc(NCCNC(=O)[C@@H](N)CCCNC(=N)N)c2c1C(=O)c1c(O)ccc(O)c1C2=O [Example 86]	%	200
Cl.Cl.N[C@@H](Cc1ccccc1)C(=O)NCCNc1ccc(NCCNC(=O)[C@@H](N)Cc2ccccc2)c2c1C(=O)c1c(O)ccc(O)c1C2=O (relative stereo) [Example 17]	%	188
Br.Br.NCC(=O)NCC(=O)NCCNc1ccc(NCCNC(=O)CNC(=O)CN)c2c1C(=O)c1c(O)ccc(O)c1C2=O [Example 58]	%	200
C[C@H](N)C(=O)NCCNc1ccc(NCCNC(=O)[C@H](C)N)c2c1C(=O)c1c(O)ccc(O)c1C2=O.Cl.Cl (stereo in doubt) [Example 16]	%	232
CC(C)(C)OC(=O)NCC(=O)NCC(=O)NCC(=O)NCCNc1ccc(NCCNC(=O)CNC(=O)CNC(=O)CNC(=O)OC(C)(C)C)c2c1C(=O)c1c(O)ccc(O)c1C2=O [Example 59]	%	136
Cl.Cl.N[C@@H](CCC(=O)O)C(=O)NCCNc1ccc(NCCNC(=O)[C@@H](N)CCC(=O)O)c2c1C(=O)c1c(O)ccc(O)c1C2=O (relative stereo) [Example 23]	%	220

----------
Test system: lymphocytic leukemia P388
TEST: Lymphocytic Leukemia P388 Test
Assay type: in vivo, BDF1 mice
APPLIED CONDITIONS: dose 0.75 mg/kg intraperitoneally on days 1, 5 and 9; BDF1 mice
Quick reference: Median Survival of the listed items.

COMPOUND	SYSTEM TESTED	Median Survival (days)
CC(C)C[C@H](NC(=O)[C@H](C)N)C(=O)NCCNc1ccc(NCCNC(=O)[C@H](CC(C)C)NC(=O)[C@H](C)N)c2c1C(=O)c1c(O)ccc(O)c1C2=O.O=C(O)C(F)(F)F.O=C(O)C(F)(F)F	lymphocytic leukemia P388	19.0
C[C@H](N)C(=O)N[C@@H](C)C(=O)N[C@@H](C)C(=O)NCCNc1ccc(NCCNC(=O)[C@H](C)NC(=O)[C@H](C)NC(=O)[C@H](C)N)c2c1C(=O)c1c(O)ccc(O)c1C2=O.O=C(O)C(F)(F)F.O=C(O)C(F)(F)F	lymphocytic leukemia P388	21.0
Cl.Cl.N[C@@H](Cc1ccccc1)C(=O)NCCNc1ccc(NCCNC(=O)[C@@H](N)Cc2ccccc2)c2c1C(=O)c1c(O)ccc(O)c1C2=O (relative stereo)	lymphocytic leukemia P388	22.5
C[C@H](NC(=O)[C@H](C)NC(=O)[C@@H](N)CC(=O)O)C(=O)NCCNc1ccc(NCCNC(=O)[C@H](C)NC(=O)[C@H](C)NC(=O)[C@@H](N)CC(=O)O)c2c1C(=O)c1c(O)ccc(O)c1C2=O.O=C(O)C(F)(F)F.O=C(O)C(F)(F)F	lymphocytic leukemia P388	22.0
N[C@@H](CO)C(=O)NCCNc1ccc(NCCNC(=O)[C@@H](N)CO)c2c1C(=O)c1c(O)ccc(O)c1C2=O.O=C(O)C(F)(F)F.O=C(O)C(F)(F)F (relative stereo)	lymphocytic leukemia P388	19.0

Ref: patent US4732970A
